The measured values listed here are drawn from patent US8461328B2.

Biological target: JAK2 (Homo sapiens, UniProt O60674)
Construct: made in house; host or cells: SF9 insect cells (baculovirus)
Sequence (O60674 812-1132): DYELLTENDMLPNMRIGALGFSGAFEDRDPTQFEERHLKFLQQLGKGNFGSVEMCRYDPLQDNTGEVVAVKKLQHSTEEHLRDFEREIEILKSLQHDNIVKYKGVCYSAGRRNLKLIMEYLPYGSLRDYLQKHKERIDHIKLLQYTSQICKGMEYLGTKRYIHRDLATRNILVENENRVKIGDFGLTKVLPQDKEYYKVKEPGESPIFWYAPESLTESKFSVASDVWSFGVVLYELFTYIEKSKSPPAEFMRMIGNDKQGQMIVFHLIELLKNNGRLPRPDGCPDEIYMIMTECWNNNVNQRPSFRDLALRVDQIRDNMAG
Experiment: JAK2 inhibition (Table 4)
Assay type: biochemical
Conditions: read-out: JAK2 Ki
measuredParameter: Ki

Example entries begin here.
[
  {
    "molecule": "CC(=O)NCCc1nc2cnc3[nH]ccc3c2n1C1CCCCC1 [Example 677]",
    "endpointValue": "29.5 nM"
  },
  {
    "molecule": "CC(C)(CF)N1CCC(n2c(CNS(C)(=O)=O)nc3cnc4[nH]ccc4c32)CC1 [Example 693]",
    "endpointValue": "72.1 nM"
  },
  {
    "molecule": "Cc1nc2cnc3[nH]ccc3c2n1C1(C)CCN(C(=O)CC#N)CC1 [Example 741]",
    "endpointValue": "528 nM"
  }
]

Determine from records and report Ki for CCC(C)S(=O)(=O)NCCc1nc2cnc3[nH]ccc3c2n1C1CCN(CCC#N)CC1 (racemic) [Example 369]
14.4 nM

###

Assignment: determine reported Ki for the given compounds.
Biological target: TYK2 (Homo sapiens, UniProt P29597)
Sequence (P29597 873-1187): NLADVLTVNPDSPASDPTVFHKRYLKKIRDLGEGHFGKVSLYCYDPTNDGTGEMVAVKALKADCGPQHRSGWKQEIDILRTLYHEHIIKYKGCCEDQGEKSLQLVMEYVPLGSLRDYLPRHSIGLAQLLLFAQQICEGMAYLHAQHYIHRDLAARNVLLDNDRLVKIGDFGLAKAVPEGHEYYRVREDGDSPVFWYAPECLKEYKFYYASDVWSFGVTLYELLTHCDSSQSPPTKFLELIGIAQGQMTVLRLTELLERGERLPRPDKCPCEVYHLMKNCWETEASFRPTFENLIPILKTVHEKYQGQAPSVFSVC
Counter-ions that a name gives are not always drawn.
One number for each entry, in µM.

Example entries begin here.
[
  {
    "compound": "C[C@@H](O)c1nc2cnc3[nH]ccc3c2n1[C@@H]1CCN(S(C)(=O)=O)C1",
    "endpointValue": 0.00417
  },
  {
    "compound": "O=S1(=O)CCCN1CCc1nc2cnc3[nH]ccc3c2n1C1CCCCC1",
    "endpointValue": 0.146
  },
  {
    "compound": "CC(O)c1nc2cnc3[nH]ccc3c2n1CC1CCCO1 (stereo not drawn) [Example 699]",
    "endpointValue": 1.07
  },
  {
    "compound": "c1cc2c(ncc3ncn(C4CCC(N5CCOCC5)CC4)c32)[nH]1 (stereo not drawn)",
    "endpointValue": 0.843
  },
  {
    "compound": "Cc1nc2cnc3[nH]ccc3c2n1C1CCC2CC(=O)NC2C1 (single isomer, unassigned) [Example 112a]",
    "endpointValue": 0.63
  }
]

Give measured Ki for every item shown.
1. Cc1nc2cnc3[nH]ccc3c2n1[C@H]1CC[C@H](N2CCNC2=O)CC1 [Example 598, formic acid salt]
2. CC(O)CN1CCC(n2c(C(C)O)nc3cnc4[nH]ccc4c32)CC1 (stereo not drawn)
3. C[C@H](O)c1nc2cnc3[nH]ccc3c2n1C1CCCOC1 (single isomer, unassigned)
4. OCCN1CCC(n2cnc3cnc4[nH]ccc4c32)CC1

0.0455
0.465
1.58
0.158

Give measured Ki for every item shown.
1. CN1CCC[C@H]1CN1CCC(n2cnc3cnc4[nH]ccc4c32)CC1
2. O=S(=O)(Cc1ccccc1)N1CCC(n2cnc3cnc4[nH]ccc4c32)CC1
3. C[C@@H](O)c1nc2cnc3[nH]ccc3c2n1[C@@H]1CCCN(C(=O)C2CC2)C1

0.519
0.0582
0.42

###

Biological target: JAK2 (Homo sapiens)
Construct: made in house; host or cells: SF9 insect cells (baculovirus)
Experiment: JAK2 inhibition (Table 4)
Type: biochemical
Details: read-out: JAK2 Ki
# class assignment by measured Ki: zone 1 (below 20 nM), zone 2 (20 nM to below 100 nM), zone 3 (100 nM or more)

Past entries and their recorded results:
[
  {
    "molecule": "Cc1nc2cnc3[nH]ccc3c2n1[C@@H](C)CO",
    "categoryLabel": "zone 3"
  },
  {
    "molecule": "N#CCCN1CCC(n2c(CNCC(F)(F)F)nc3cnc4[nH]ccc4c32)CC1",
    "categoryLabel": "zone 2"
  },
  {
    "molecule": "Cc1nc2cnc3[nH]ccc3c2n1C(C)CCO (racemic)",
    "categoryLabel": "zone 3"
  },
  {
    "molecule": "CC1(n2cnc3cnc4[nH]ccc4c32)CCN(S(C)(=O)=O)CC1",
    "categoryLabel": "zone 1"
  },
  {
    "molecule": "c1ccc(CN2CCC(n3c(C4CNC4)nc4cnc5[nH]ccc5c43)CC2)cc1",
    "categoryLabel": "zone 2"
  }
]

Please indicate the class for C[C@]1(O)CC[C@@H](n2nnc3cnc4[nH]ccc4c32)CC1 based on its Ki.
zone 1

Please indicate the class for CC(C)NC(=O)[C@H]1CC[C@H](n2nnc3cnc4[nH]ccc4c32)CC1 based on its Ki.
zone 3

Please indicate the class for CC(=O)NCCc1nc2cnc3[nH]ccc3c2n1[C@H]1CCCOC1 based on its Ki.
zone 3

Please indicate the class for COCCN1CC[C@@H](n2c([C@@H](C)O)nc3cnc4[nH]ccc4c32)C(F)(F)C1 based on its Ki.
zone 1

###

Target: JAK1 (Homo sapiens)
Construct: made in house; host or cells: SF9 insect cells (baculovirus)
Assay: JAK1 inhibition (Table 4)
Format: biochemical
Conditions: read-out: JAK1 Ki
pKi: −log10 of the molar value.
# class assignment by measured pKi: band A (below 7), band B (7 to below 8), band C (8 or more)

[
  {
    "compound": "C[C@@H](O)c1nc2cnc3[nH]ccc3c2n1[C@H]1CCCOC1",
    "targetOfAssay": "JAK1 (Homo sapiens)",
    "categoryLabel": "band C"
  },
  {
    "compound": "CN(C(=O)Cc1nc2cnc3[nH]ccc3c2n1C1CCN(CCC#N)CC1)C1CCCC1",
    "targetOfAssay": "JAK1 (Homo sapiens)",
    "categoryLabel": "band B"
  },
  {
    "compound": "CN(C)CC(=O)NCCc1nc2cnc3[nH]ccc3c2n1C1CCCCC1",
    "targetOfAssay": "JAK1 (Homo sapiens)",
    "categoryLabel": "band C"
  },
  {
    "compound": "CN1CCOCC1C(=O)N1CCC(n2cnc3cnc4[nH]ccc4c32)CC1 (single isomer, unassigned) [Example 197]",
    "targetOfAssay": "JAK1 (Homo sapiens)",
    "categoryLabel": "band B"
  },
  {
    "compound": "CC(C)(O)Cc1nc2cnc3[nH]ccc3c2n1C1CCNCC1",
    "targetOfAssay": "JAK1 (Homo sapiens)",
    "categoryLabel": "band A"
  }
]

Kindly review the next compound as well.
Please indicate the class for CC(O)c1nc2cnc3[nH]ccc3c2n1CC1CCCO1 (stereo not drawn) [Example 700] based on its pKi.
band A

###

Target: JAK1 (Homo sapiens)
Construct: made in house; host or cells: SF9 insect cells (baculovirus)
Assay: JAK1 inhibition (Table 4)
Assay type: biochemical
Conditions: read-out: JAK1 Ki
Assignment: determine reported Ki for the given molecules.
One number for each entry, in nM.

Example entries begin here.
[
  {
    "molecule": "Cn1ccc(CCc2nc3cnc4[nH]ccc4c3n2C2CCN(CCC#N)CC2)n1 [Example 814]",
    "measuredParameter": "Ki",
    "endpointValue": 11.2
  },
  {
    "molecule": "CS(=O)(=O)c1ccc(S(=O)(=O)N2CCC(n3cnc4cnc5[nH]ccc5c43)CC2)cc1 [Example 450]",
    "measuredParameter": "Ki",
    "endpointValue": 3.06
  },
  {
    "molecule": "O=C(c1nc2cnc3[nH]ccc3c2n1C1CCN(Cc2ccccc2)CC1)N1CCOCC1 [Example 237]",
    "measuredParameter": "Ki",
    "endpointValue": 106
  },
  {
    "molecule": "CC(CC#N)N1CCC(n2cnc3cnc4[nH]ccc4c32)CC1 (racemic) [Example 305]",
    "measuredParameter": "Ki",
    "endpointValue": 0.78
  }
]

Give measured Ki for every item shown.
1. Cc1nc2cnc3[nH]ccc3c2n1[C@H](C)CO [Example 421]
2. CC(=O)NCCc1nc2cnc3[nH]ccc3c2n1C1CCN(CCC#N)CC1 [Example 379]
3. FC(F)(F)c1cccc(CN2CCC(n3cnc4cnc5[nH]ccc5c43)CC2)n1 [Example 314]
4. CC(CC#N)N1CCC(n2c(CNS(C)(=O)=O)nc3cnc4[nH]ccc4c32)CC1 (racemic) [Example 507]

1: 251; 2: 3.54; 3: 4.46; 4: 11.1

###

Molecular target: JAK1 (Homo sapiens, UniProt P23458)
Construct: made in house; host or cells: SF9 insect cells (baculovirus)
Sequence (P23458 852-1154): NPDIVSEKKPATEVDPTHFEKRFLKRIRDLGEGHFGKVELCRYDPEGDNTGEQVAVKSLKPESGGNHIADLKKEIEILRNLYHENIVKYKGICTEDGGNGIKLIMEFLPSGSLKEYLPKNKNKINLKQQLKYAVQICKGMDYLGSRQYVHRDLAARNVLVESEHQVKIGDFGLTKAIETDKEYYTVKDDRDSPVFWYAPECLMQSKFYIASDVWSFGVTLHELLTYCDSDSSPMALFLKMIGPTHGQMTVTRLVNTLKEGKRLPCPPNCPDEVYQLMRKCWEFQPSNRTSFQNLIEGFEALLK
Experiment: JAK1 inhibition (Table 4)
Assay type: biochemical
Details: read-out: JAK1 Ki
measuredParameter: log10 Ki (log10 of the value in nM)
Heads up: the numbers are on a log10 scale; they represent Ki in nM.

Example entries begin here.
[
  {
    "molecule": "C[C@@H](O)c1nc2cnc3[nH]ccc3c2n1[C@@H]1CCCN(C(=O)C2CCC2)C1",
    "log10 Ki": 1.88
  },
  {
    "molecule": "CC1CN(Cc2ccccc2)CCC1n1cnc2cnc3[nH]ccc3c21 (racemic) [Example 149]",
    "log10 Ki": -0.01
  },
  {
    "molecule": "CC(C)(C)OC(=O)N1CCC(n2c(C#N)nc3cnc4[nH]ccc4c32)CC1",
    "log10 Ki": 2.47
  },
  {
    "molecule": "Cc1nc2cnc3[nH]ccc3c2n1C1CCN(CC(O)CO)CC1 (stereo not drawn)",
    "log10 Ki": 0.81
  },
  {
    "molecule": "Cn1ncc2c1CC[C@H](n1cnc3cnc4[nH]ccc4c31)C2",
    "log10 Ki": 1.60
  },
  {
    "molecule": "c1cc2c(ncc3ncn([C@@H]4CCCN(C5COC5)C4)c32)[nH]1",
    "log10 Ki": 2.42
  }
]

Give measured log10 Ki for every item shown.
1. Cc1nc(CN2CCC(n3c([C@@H](C)O)nc4cnc5[nH]ccc5c43)CC2)c[nH]1
2. Cc1nc2cnc3[nH]ccc3c2n1[C@@H]1CCC[C@@](C)(O)C1
3. COc1ccc(CN2CCC[C@@H](n3cnc4cnc5[nH]ccc5c43)C2)cc1
4. C[C@@H](O)c1nc2cnc3[nH]ccc3c2n1C1CCN(Cc2nccn2C)CC1
5. N#CCCn1cc2c(n1)CCC(n1cnc3cnc4[nH]ccc4c31)C2 (racemic)

[1.41, 1.91, 1.86, 1.67, 0.97]

Give measured log10 Ki for every item shown.
1. NC(=O)Cc1nc2cnc3[nH]ccc3c2n1C1CCCOC1 (racemic)
2. O=C1CN(Cc2nc3cnc4[nH]ccc4c3n2C2CCOCC2)CCN1
3. CC(=O)NCc1nc2cnc3[nH]ccc3c2n1C1CCNCC1
4. CC(C)(C)OC(=O)N1CC(n2cnc3cnc4[nH]ccc4c32)C1

1: 1.48; 2: 2.65; 3: 1.89; 4: 2.54
